Header: IC50 / Autotaxin (Homo sapiens, UniProt Q13822) / multiple publications
Criterion: IC50 strictly under 100 nM. Met: t. Not met: f.

Ask | Consider the compound "O=C(COc1cc(Cl)cc(Cl)c1)N1CCC2(CC1)CN(C(=O)c1ccc3[nH]nnc3c1)C2" . Is its IC50 strictly less than 100 nM?
Reply | f

Ask | Input "O=C(/C=C/c1ccc(OC(F)F)c(F)c1)N1CCc2cc(C(=O)N3CCc4[nH]nnc4C3)nn2CC1" ; condition: IC50 strictly below 100 nM. Does it hold?
Reply | t

Ask | # strict comparison: is reported IC50 < 100 nM? input = "O=C(/C=C/c1ccccc1)N1C[C@@H]2CN(C(=O)c3ccc4[nH]nnc4c3)C[C@H]2C1"
Reply | f

Ask | Lab note: confirm whether the reported IC50 for this compound is below 100 nM, equality not counting. compound: "Cc1cc(OCc2n[nH]c3ncccc23)c(-c2cc(C(=O)N3CCOCC3)ccc2F)cc1Cl"
Reply | t

Ask | Please let me know if "O=C(NC1CC2(C1)CN(C(=O)CCc1cc(Cl)cc(Cl)c1)C2)c1ccc2[nH]nnc2c1" shows IC50 below 100 nM.
Reply | f

Ask | Given "COc1ccc(CCC(=O)N2CC[C@@H]3CN(C(=O)c4ccc5[nH]nnc5c4)C[C@@H]3CC2)cc1F" , is recorded IC50 strictly lower than 100 nM?
Reply | t

Ask | Bench note: check whether "COc1cccc(-c2cc(Cl)c(C)cc2OCc2n[nH]c(=O)n2C)n1" shows IC50 below 100 nM
Reply | f

----------
From various publications: pIC50 for Autotaxin (Homo sapiens, UniProt Q13822).
Hey, just a heads up that pIC50 is the negative log base 10 of the concentration in molar.

pIC50 value, target or system Autotaxin (Homo sapiens, UniProt Q13822), for "NS(=O)(=O)c1ccc(C(=O)N2C[C@H]3CN(C(=O)c4cnc(OC5CCOCC5)c(C5CC5)c4)C[C@@H]3C2)cc1" : 7.66

Hey, Autotaxin (Homo sapiens, UniProt Q13822) data for "CCc1nc2ccc(-c3cnc(C(C)(C)C(=O)N4CC(O)C4)cn3)cn2c1N(C)c1nc(-c2ccc(F)cc2)c(C#N)s1" : pIC50 came out at 7.55

Entry "O=C(OCc1ccc(OC(F)(F)F)cc1)N1CCC2(CC1)CN(C(=O)N1CCc3[nH]nnc3C1)C2" , tested on Autotaxin (Homo sapiens, UniProt Q13822), has a reported pIC50 of 8.52

----------
# merged literature set: IC50 with Autotaxin (Homo sapiens, UniProt Q13822)
Just the number in nM, nothing appended.

Measured IC50 (Autotaxin (Homo sapiens, UniProt Q13822)), entry "O=C(c1cccc(-c2ccc(Cl)cc2)c1)N1C[C@@H]2[C@H](C1)[C@H]1CN(C(=O)c3ccc4[nH]nnc4c3)C[C@@H]21" : 20

Tested on Autotaxin (Homo sapiens, UniProt Q13822), the item "Cc1cc(OCc2n[nH]c3nc(N(C)CCO)ncc23)c(C(C)(C)C)cc1Cl" showed IC50 equal to 14

The compound "O=C(OCc1cncc(Br)c1)N1CCC2(CC1)CN(C(=O)c1ccc3[nH]nnc3c1)C2" , tested on Autotaxin (Homo sapiens, UniProt Q13822), showed IC50 of 1640

Lab note: compound "O=C(/C=C/c1cccnc1)N1CC[C@@H]2CN(C(=O)c3ccc4[nH]nnc4c3)C[C@@H]2CC1" tested on Autotaxin (Homo sapiens, UniProt Q13822); recorded IC50 was 3950

Measured IC50 (Autotaxin (Homo sapiens, UniProt Q13822)), entry "COCC(=O)N1CCc2[nH]nc(COc3cc(C)c(Cl)cc3C(C)(C)C)c2C1" : 80400

Fill in: Autotaxin (Homo sapiens, UniProt Q13822) IC50 for "Cc1ccc(C(C)C)c(OCC(=O)N2C[C@@H]3CN(C(=O)c4ccc5[nH]nnc5c4)C[C@H]3C2)c1" = 7

Item "Cc1cc(OCc2n[nH]c(=O)n2C)c(C(C)(C)C)cc1C#N" ; assay system Autotaxin (Homo sapiens, UniProt Q13822); IC50 reported as 5

So the reported IC50 for "O=C(O)c1ccc(-c2nn(CC(=O)N3CCc4[nH]nnc4C3)cc2-c2cnc(NC3Cc4ccccc4C3)nc2)cc1" , on Autotaxin (Homo sapiens, UniProt Q13822), turned out to be 9.19

# lookup: "COc1cccc(C(=O)N2C[C@@H]3[C@H](C2)[C@H]2CN(C(=O)c4ccc5[nH]nnc5c4)C[C@@H]32)c1" on Autotaxin (Homo sapiens, UniProt Q13822), IC50 = 2830

Log: Autotaxin (Homo sapiens, UniProt Q13822), compound "O=C1N[C@@H]2CCN(C(=O)c3nc4n(n3)CCN(C(=O)OCc3ccc(OC(F)(F)F)c(F)c3)CC4)C[C@H]2O1" , IC50 = 56

Entry "COCCOc1cc(C(=O)N2C[C@@H]3[C@H]4CN(C(=O)c5ccc6[nH]nnc6c5)C[C@H]4[C@@H]3C2)nc2ccccc12" : IC50 on Autotaxin (Homo sapiens, UniProt Q13822) = 8

Readout IC50 for "O=C(OCc1ccc(OC(F)(F)C(F)F)cc1)N1C[C@@H]2CN(C(=O)c3ccc4[nH]nnc4c3)C[C@H]2C1" , test system Autotaxin (Homo sapiens, UniProt Q13822), was 24

Form: item "CS(=O)(=O)c1cc(Cl)cc(COC(=O)N2C[C@@H]3CN(C(=O)c4ccc5[nH]nnc5c4)C[C@H]3C2)c1" ; test system Autotaxin (Homo sapiens, UniProt Q13822); IC50: 11

----------
The following compounds were reported with IC50 values on Autotaxin (Homo sapiens, UniProt Q13822) in different studies.
Express the result in nM but write the number alone.

Record O=C(c1ccc2[nH]nnc2c1)N1C[C@@H]2[C@H](C1)[C@H]1CN(C(=O)C3CCc4ccccc4O3)C[C@@H]21 (stereo partly drawn) . Reported IC50: 632

Entry CC1CC(COCc2c[nH]nn2)CCN1C(=O)c1cnc(NC2Cc3ccccc3C2)nc1 (stereo not drawn) , IC50 reported as 1.29

Kindly note the recorded IC50 for "Cc1cc(OCc2n[nH]c3ncccc23)c(-c2ccno2)cc1Cl" , which is 1

// IC50 value for "O=C(OCc1ccc(OCC(F)(F)F)cc1F)N1CC[C@@H]2CN(C(=O)c3ccc4[nH]nnc4c3)C[C@@H]2CC1" : 2

Summary for this compound, "Cc1nc(-c2cnc(NC3Cc4ccccc4C3)nc2)cn1CC(=O)N1CCc2[nH]nnc2C1" : IC50 is 4.87

Sure, the documented IC50 for "CC(C)(C)C(=O)Nc1cc(C(F)(F)F)cnc1COC(=O)N1Cc2ccc(C(=O)N3CCC(S(N)(=O)=O)CC3)cc2C1" is 7

----------
Below, IC50 values reported for Autotaxin (Homo sapiens) across several publications.

CCOCC1CN(Cc2cccc(C(=O)O)c2)C(=O)c2cc(-c3ccc(Cl)cc3)nn21 (stereo not shown) tested on Autotaxin (Homo sapiens) gave IC50: 10 to 100 nM

Reported Autotaxin (Homo sapiens) IC50 for item "O=C(CO)N1CCC(c2nn(CC(=O)N3CCc4[nH]nnc4C3)cc2-c2cnc(NC3Cc4ccccc4C3)nc2)CC1" was 5.3 nM

Form field IC50 for item CCc1nc2sc(N3CCCC(N(C)C(=O)NC(C)(C)C)C3)nn2c1N(C)c1nc(-c2ccc(F)cc2)c(C#N)s1 (stereo not shown) on Autotaxin (Homo sapiens): ≥ 1000 nM

GET /values?item= CCCCCC1CN(Cc2ccc(C#N)cc2)C(=O)c2cc(C(=O)N3CCC(C#N)CC3)nn21 (stereo not shown) &system= Autotaxin (Homo sapiens) returns IC50: ≥ 1000 nM

----------
Target or system Autotaxin (Homo sapiens); metric pIC50; compiled from varied reports.
Please express pIC50 as -log10 of the molar concentration.

For record "CC(C)(C)c1cc(Cl)c(C#N)cc1OCc1n[nH]c2cnccc12" the listed pIC50 is 9.00

// sample "O=C(CCc1ccc(OC(F)(F)F)c(F)c1)N1CC[C@@H]2CN(C(=O)c3ccc4[nH]nnc4c3)C[C@@H]2CC1" , its pIC50 was 8.40

The value of pIC50 measured for the molecule Cc1cc(OCc2n[nH]c3nc(OCC(O)CO)ncc23)c(C(C)(C)C)cc1Cl (centres unmarked) turned out to be 8.70

pIC50 reading for "O=C(OCc1ccc(OCC(F)(F)F)cc1)N1CCc2cc(C(=O)N3CCc4[nH]nnc4C3)nn2CC1" : 7.77

----------
// read-out IC50, gathered for Autotaxin (Homo sapiens, UniProt Q13822) from published studies

IC50 measured on "C[C@H]1CN(Cc2ccccc2OCCCN(C)C)C(=O)c2cc(-c3ccc(Cl)cc3)nn21" = ≥ 1000 nM

Given item "CC(C)c1cc(CNc2ncc(C(=O)N3CCCC3)cn2)cc(OC(F)(F)F)c1" , the value recorded as its IC50 is < 100 nM

Summary for this compound, "Cc1c(Sc2cccc(C(=O)O)c2)c2ccc(Cl)c(F)c2n1CC(=O)Nc1cc(Cl)cc(Cl)c1" : IC50 is > 3000 nM

Kindly note the recorded IC50 for "O=C(c1cnc(OC2CCOCC2)c(C2CC2)c1)N1C[C@@H]2CN(C(=O)c3ccc4[nH]nnc4c3)C[C@H]2C1" , which is 10 nM
